# assay-target: UniProt P25100
# Sequence (whole entry): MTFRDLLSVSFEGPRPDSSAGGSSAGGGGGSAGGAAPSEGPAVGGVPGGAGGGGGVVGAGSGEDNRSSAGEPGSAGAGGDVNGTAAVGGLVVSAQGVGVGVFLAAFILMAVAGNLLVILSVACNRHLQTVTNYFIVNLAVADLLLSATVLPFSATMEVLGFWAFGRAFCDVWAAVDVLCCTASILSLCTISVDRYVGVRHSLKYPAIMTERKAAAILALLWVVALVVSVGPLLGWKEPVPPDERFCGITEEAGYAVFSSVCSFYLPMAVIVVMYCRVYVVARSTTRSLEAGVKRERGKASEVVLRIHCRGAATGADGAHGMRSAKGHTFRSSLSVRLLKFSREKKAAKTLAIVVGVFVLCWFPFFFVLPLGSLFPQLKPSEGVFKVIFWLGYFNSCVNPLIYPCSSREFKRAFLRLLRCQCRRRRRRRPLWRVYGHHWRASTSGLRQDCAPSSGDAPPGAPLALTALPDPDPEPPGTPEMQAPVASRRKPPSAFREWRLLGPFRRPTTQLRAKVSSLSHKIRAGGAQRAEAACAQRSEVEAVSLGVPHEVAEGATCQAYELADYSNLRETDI
# assay-comment: Antagonist activity at human adrenergic alpha1D receptor expressed in HEK293 cells assessed as inhibition of noradrenaline-induced receptor activation preincubated for 15 mins followed by noradrenaline addition and measured after 1 hr by TGFalpha shedding assay
measured-endpoint: Kb (nM)
Numbers only, in nM.

| smiles-string | quantity-unit | Kb |
| --- | --- | --- |
| CN1CCc2cc3c(c4c2[C@H]1Cc1ccccc1-4)OCO3 | nM | 46 |

Can you give me Kb for all of these, one by one?
1. COc1cc2c3c(c1OC)-c1ccccc1C[C@@H]3N(C)CC2
2. CN1CCc2cc3c(c4c2[C@@H]1Cc1ccccc1-4)OCO3
3. COc1cc2c3c(c1OC)-c1ccccc1C[C@H]3N(C)CC2

Outgoing:
1: 116; 2: 92.2; 3: 165
